Here, each record is paired with measured TGI data.
tested on: BT-549 breast; assay: NCI tumour cell line growth inhibition, 48 h

Look over these answered cases.
compound | subject.of.test | TGI
COCN1C(=O)[C@@H]2CCCN2C(=O)c2cc(Cl)ccc21 | BT-549 breast | > 100 µM
COc1ccc2cc(C(=O)/C=C/c3ccco3)ccc2c1 | BT-549 breast | 43.8 µM

# context switch: different compound, same TGI
Req: For Cc1ccc(C2SC(N)=Nc3c2c(C)nn3C(=O)c2ccc(Cl)cc2)cc1 (stereo not given) , what is its reported TGI?
Resp: > 10 µM

----------
# maps each entry to its TGI
system: BT-549 breast; experiment: NCI tumour cell line growth inhibition, 48 h

molecule | outcome.measure | val
O=c1cc(-c2ccccc2)nc2cc(-c3ccco3)[nH]n12 | TGI | > 100 µM
O=C(O)C1CCCCC1C(=O)Nc1nc2ccccc2[nH]1 (configuration not stated) | TGI | > 100 µM
Cc1ccc2nc(CC(=O)c3ccc4ccccc4c3)c(=O)[nH]c2c1 | TGI | > 100 µM
C=CCCC(O)c1ccc(CCCCCCCCCCC)o1 (configuration not stated) | TGI | 30.7 µM
Cc1nc2ccc(S(=O)(=O)Nc3ccccc3Cl)cc2c(=O)n1NC(=O)CNc1ccccc1Cl | TGI | > 100 µM

Req: Need TGI, item "C(=C\c1nc2ccccc2s1)/c1ccc(N2CCOCC2)s1"
Resp: > 100 µM

Req: Query (molecule): Cc1cc(S(=O)(=O)Nc2nc(N)nc(N(C)C)n2)c(SC(C(=O)O)c2ccccc2)cc1Cl (configuration not stated) ; field requested: TGI
Resp: > 10 µM
